Measured Glucuronide Formation (pmol/min/mg protein) accompanies every entry in the list below.
- SYSTEM TESTED: UGT2B17 (Homo sapiens, UniProt O75795)
- Construct: cell homogenate
- Sequence (O75795 24-530): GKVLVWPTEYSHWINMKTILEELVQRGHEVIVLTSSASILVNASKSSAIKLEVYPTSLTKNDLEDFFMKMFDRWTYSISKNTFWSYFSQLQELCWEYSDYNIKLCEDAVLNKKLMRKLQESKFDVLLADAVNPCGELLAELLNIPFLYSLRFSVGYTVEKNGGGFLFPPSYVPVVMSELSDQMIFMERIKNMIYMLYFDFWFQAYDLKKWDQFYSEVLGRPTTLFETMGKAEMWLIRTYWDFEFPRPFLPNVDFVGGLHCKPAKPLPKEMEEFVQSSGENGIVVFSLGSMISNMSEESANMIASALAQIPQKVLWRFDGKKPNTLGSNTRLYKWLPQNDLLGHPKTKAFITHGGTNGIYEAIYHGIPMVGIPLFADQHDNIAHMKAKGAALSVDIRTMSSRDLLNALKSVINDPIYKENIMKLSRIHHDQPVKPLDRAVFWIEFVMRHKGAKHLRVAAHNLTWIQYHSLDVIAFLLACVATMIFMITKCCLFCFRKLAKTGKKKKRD
- MEASUREMENT PROTOCOL: Second glucuronidation assay to determine the amount of enzyme activity (glucuronide formation)
- Format: biochemical
- TEST SETTINGS: HK293-UGT2B17 cell homogenate, 6 μM [14C]UDPGA and 494 μM unlabelled UDPGA, 15 minutes at 30° C.
PROPERTY LABEL: Glucuronide Formation (pmol/min/mg protein)

> print(dat)
                                   molecule                           system.tested    unit.abbreviation  data.value
1   O=[N+]([O-])c1ccc(O)cc1 [p-nitrophenol]  UGT2B17 (Homo sapiens, UniProt O75795)  pmol/min/mg protein           4
2               Oc1cccc2ccccc12 [l-naphtol]  UGT2B17 (Homo sapiens, UniProt O75795)  pmol/min/mg protein           7
3  C[C@]12CC[C@H]3[C@@H](CCC4=CC(=O)CC[C@@]43C)[C@@H]1CC[C@@H]2O [Testosterone]  UGT2B17 (Homo sapiens, UniProt O75795)  pmol/min/mg protein           9
4       Oc1ccccc1-c1ccccc1O [o,o' biphenyl]  UGT2B17 (Homo sapiens, UniProt O75795)  pmol/min/mg protein           7
5  C[C@]12CC[C@@H](O)C[C@@H]1CC[C@@H]1[C@@H]2CC[C@]2(C)[C@@H](O)CC[C@@H]12 [5α-Androstane-3α,17β-diol]  UGT2B17 (Homo sapiens, UniProt O75795)  pmol/min/mg protein          15
6  C[C@]12CC[C@@H](O)C[C@@H]1CC[C@@H]1[C@@H]2[C@H](O)C[C@]2(C)[C@@H](O)CC[C@@H]12 [5α-Androstane-3α,11α,17β-triol]  UGT2B17 (Homo sapiens, UniProt O75795)  pmol/min/mg protein           5
7  C[C@]12CC[C@@H](O)C[C@@H]1CC[C@@H]1[C@@H]2[C@@H](O)C[C@]2(C)[C@@H](O)CC[C@@H]12 [5α-Androstane-3α,11β,17β-triol]  UGT2B17 (Homo sapiens, UniProt O75795)  pmol/min/mg protein           8
8  C[C@]12CC[C@@H](O)C[C@H]1CC[C@@H]1[C@@H]2CC[C@]2(C)C(=O)CC[C@@H]12 [Etiocholanolone]  UGT2B17 (Homo sapiens, UniProt O75795)  pmol/min/mg protein          13

----------
- SYSTEM TESTED: UGT2B17 (Homo sapiens, UniProt O75795)
- Construct: cell homogenate
- MEASUREMENT PROTOCOL: Second glucuronidation assay to determine the amount of enzyme activity (glucuronide formation)
- Type: biochemical
- TEST SETTINGS: HK293-UGT2B17 cell homogenate, 6 μM [14C]UDPGA and 494 μM unlabelled UDPGA, 15 minutes at 30° C.
- Procedure: Stable Expression of UGT2B17. Human kidney 293 cells were grown in Dubelcco's modified Eagle's medium containing 4.5 g/l glucose, 10 mM HEPES, 110 μg/ml sodium pyruvate, 100 IU of penicillin/ml, 100 μg/ml of streptomycin and 10% fetal bovine serum (FBS) in a humidified incubator, with an atmosphere of 5% CO2, at 37° C. […] Glucuronidation Assay Using Cell Homogenates. […] The TLC plates were exposed for four days and the extent of glucuronidation was measured by Phosphorimager (Molecular Dynamics). […]
PROPERTY LABEL: Glucuronide Formation (pmol/min/mg protein)

> print(dat)
                                   compound  data.value
1  C[C@H](O)[C@H]1CC[C@H]2[C@@H]3CC[C@H]4C[C@H](O)CC[C@]4(C)[C@H]3CC[C@]12C [5α-pregnane-3α,20α-diol]           8
2   Oc1ccc(-c2ccc(O)cc2)cc1 [p,p' biphenyl]           5
3  C[C@]12CC[C@@H](O)C[C@H]1CC[C@@H]1[C@@H]2CC[C@]2(C)[C@@H](O)CC[C@@H]12 [5β-Androstane-3α,17β-diol]          14
4             C=CCc1ccc(O)c(OC)c1 [Eugenol]          38
5  C[C@]12CCC(=O)C[C@@H]1CC[C@@H]1[C@@H]2CC[C@]2(C)[C@@H](O)CC[C@@H]12 [Dihydrotestosterone]          14
6  C[C@]12CC[C@@H](O)C[C@@H]1CC[C@@H]1[C@@H]2CC[C@]2(C)C(=O)CC[C@@H]12 [Androsterone]           5
7  C[C@]12CC[C@@H](O)C[C@H]1CC[C@@H]1[C@@H]2CC[C@]2(C)[C@@H](O)[C@H](O)C[C@@H]12 [5β-Androstane-3α,16α,17β-triol]          11
